// data source = patent EP4796125A1

- System: NCI-H460 cells
- Experimental details: In vitro proliferation under normoxia conditions (CTG, 72 hours), Example 29
- Format: cell-based
- Condition set: Homo sapiens, Table 25, normoxia, alone or + 3 µM AST-3021
pIC50: −log10 of the molar value.

Molecule | pIC50
CN(C)C(=O)c1cccc(Oc2cc3c(cc2[N+](=O)[O-])OCCC3OP(=O)(N2CC2)N2CC2)c1 (centres unmarked) | 8.69
C[C@H](OP(=O)(N1CC1)N1CC1)c1ccc([N+](=O)[O-])c(Oc2cccc(C(=O)N(C)C)c2)c1 | 9.37

====

- Tested on: H460 cells
- Experimental details: Applicant's previous cancer cell proliferation inhibition test
- Type: cell-based
- Condition set: Homo sapiens, NCI-H460, single drug, applicant's previous test data
Parameter measured: IC50 (nM)

Compound | Parameter measured | Result value
C[C@H](OP(=O)(N1CC1)N1CC1)c1ccc([N+](=O)[O-])c(Oc2cccc(C(=O)N(C)C)c2)c1 [AST-3424] | IC50 | 0.47

====

- System: HPAF-II cells
- Experimental details: Applicant's previous cancer cell proliferation inhibition test
- Format: cell-based
- Condition set: Homo sapiens, single drug, applicant's previous test data

Structure smiles string | IC50 [nM]
C[C@H](OP(=O)(N1CC1)N1CC1)c1ccc([N+](=O)[O-])c(Oc2cccc(C(=O)N(C)C)c2)c1 | 107
